- measurement protocol: DRUGMATRIX: Calcium Channel Type L, Benzothiazepine radioligand binding (ligand: [3H] Diltiazem)
- Type: cell membranes, Rattus norvegicus, Wistar, Brain, Membrane
- measurement conditions: Not Active = under 50% inhibition at 10 µM

- compound: "NS(=O)(=O)c1cc(C2(O)NC(=O)c3ccccc32)ccc1Cl (configuration not stated) [CHLORTHALIDONE]"
  Ki: "Not Active"
- compound: "O=C(O)COc1ccc(C(=O)c2cccs2)c(Cl)c1Cl"
  Ki: "Not Active"
- compound: "CN1C(=O)CN=C(c2ccccc2)c2cc([N+](=O)[O-])ccc21 [NIMETAZEPAM]"
  Ki: "Not Active"
- compound: "O=C(O)CC(O)(CC(=O)O)C(=O)O [CITRIC ACID]"
  Ki: "Not Active"
- compound: "C[N+](C)(C)C[C@H](O)CC(=O)[O-] [LEVOCARNITINE]"
  Ki: "Not Active"
- compound: "CC(=N)S [THIOACETAMIDE]"
  Ki: "Not Active"
- compound: "CCOc1nc2cccc(C(=O)O)c2n1Cc1ccc(-c2ccccc2-c2nnn[nH]2)cc1"
  Ki: "Not Active"
- compound: "N[C@@H](Cn1ccc(=O)c(O)c1)C(=O)O [L-MIMOSINE]"
  Ki: "Not Active"
- compound: "COc1cc(OC)c(C(=O)CCCN2CCCC2)c(OC)c1 [BUFLOMEDIL]"
  Ki: "Not Active"
- compound: "COC(=O)Nc1nc2cc(C(=O)c3ccc(F)cc3)ccc2[nH]1 [FLUBENDAZOLE]"
  Ki: "Not Active"
- compound: "O=C1C[C@@H]2OCC=C3CN4CC[C@]56c7ccccc7N1[C@H]5[C@H]2[C@H]3C[C@H]46 [STRYCHNINE]"
  Ki: "Not Active"
- compound: "C[C@]12C=CC(=O)C=C1CC[C@H]1[C@@H]3C[C@@H](O)[C@](O)(C(=O)CO)[C@@]3(C)C[C@H](O)[C@@]12F [TRIAMCINOLONE]"
  Ki: "Not Active"
- compound: "CC(=O)OC[C@H]1O[C@@H](n2ncc(=O)[nH]c2=O)[C@H](OC(C)=O)[C@@H]1OC(C)=O [AZARIBINE]"
  Ki: "Not Active"
- compound: "CCc1ccc(CCOc2ccc(CC3SC(=O)NC3=O)cc2)nc1 (configuration not stated) [PIOGLITAZONE]"
  Ki: "Not Active"
- compound: "CC(O)(P(=O)(O)O)P(=O)(O)O [ETIDRONIC ACID]"
  Ki: "Not Active"
- compound: "CC(C)c1c(C(=O)Nc2ccccc2)c(-c2ccccc2)c(-c2ccc(F)cc2)n1CC[C@@H](O)C[C@@H](O)CC(=O)O [ATORVASTATIN]"
  Ki: "Not Active"
- compound: "COc1ccccc1N"
  Ki: "Not Active"
- compound: "CCCNC(C)C(=O)Nc1ccccc1C (configuration not stated) [PRILOCAINE]"
  Ki: "Not Active"
- compound: "C[N+](C)(C)CCOC(=O)CCC(=O)OCC[N+](C)(C)C.[Cl-].[Cl-] [SUCCINYLCHOLINE CHLORIDE]"
  Ki: "Not Active"
- compound: "C[S+](C)[O-] [DIMETHYL SULFOXIDE]"
  Ki: "Not Active"
- compound: "O=C(O)CCCCC1CCSS1 (stereo not drawn) [LIPOIC ACID, ALPHA]"
  Ki: "Not Active"
- compound: "COc1ccnc(C[S+]([O-])c2nc3ccc(OC(F)F)cc3[nH]2)c1OC (configuration not stated) [PANTOPRAZOLE]"
  Ki: "Not Active"
- compound: "C[C@@H]1C/C=C/C=C/C=C/C=C/[C@H](O[C@@H]2O[C@H](C)[C@@H](O)[C@H](N)[C@@H]2O)C[C@@H]2O[C@](O)(C[C@@H](O)C[C@H]3O[C@@H]3/C=C/C(=O)O1)C[C@H](O)[C@H]2C(=O)O [NATAMYCIN]"
  Ki: "Not Active"
- compound: "CN1CCN(CCCN2c3ccccc3Sc3ccc(C(F)(F)F)cc32)CC1 [TRIFLUOPERAZINE]"
  Ki: "Not Active"
- compound: "NC(=O)N1c2ccccc2CC(=O)c2ccccc21 [OXCARBAZEPINE]"
  Ki: "Not Active"
- compound: "CC1=NN(c2ccccc2)C(=O)C1 [EDARAVONE]"
  Ki: "Not Active"
- compound: "O=C(O)c1cc(-c2ccc(F)cc2F)ccc1O [DIFLUNISAL]"
  Ki: "Not Active"
- compound: "C[C@H]1[C@H](NC(=O)/C(=N\\OC(C)(C)C(=O)O)c2csc(N)n2)C(=O)N1S(=O)(=O)O [AZTREONAM]"
  Ki: "Not Active"
- compound: "C#C[C@]1(O)CC[C@H]2[C@@H]3CCC4=CC(=O)CC[C@]4(C)[C@H]3CC[C@@]21C [ETHISTERONE]"
  Ki: "Not Active"
- compound: "Cn1c(=O)c2c(ncn2C)n(C)c1=O [CAFFEINE]"
  Ki: "Not Active"
- compound: "CN(C)C(=O)Oc1cccc([N+](C)(C)C)c1.[Br-] [NEOSTIGMINE BROMIDE]"
  Ki: "Not Active"
- compound: "CC(C)(C(=O)O)c1ccc(C(O)CCCN2CCC(C(O)(c3ccccc3)c3ccccc3)CC2)cc1 (configuration not stated) [FEXOFENADINE]"
  Ki: "Not Active"
- compound: "NC(=O)c1cccnc1 [NIACINAMIDE]"
  Ki: "Not Active"
- compound: "CC1CCC(NC(=O)N(CCCl)N=O)CC1 (configuration not stated) [SEMUSTINE]"
  Ki: "Not Active"
- compound: "CCOC(=O)c1ncn2c1CN(C)C(=O)c1cc(F)ccc1-2 [FLUMAZENIL]"
  Ki: "Not Active"
- compound: "CCN(C(C)=O)c1cccc(-c2ccnc3c(C#N)cnn23)c1 [ZALEPLON]"
  Ki: "Not Active"
- compound: "Cc1ccc(C(=O)c2ccc(CC(=O)O)n2C)cc1 [TOLMETIN]"
  Ki: "Not Active"
